# Tested on: LXRb homodimer (NR concentration 270 nM)
# experimentalDetails: PBM binding z-score (relative to random genomic background probes); higher = stronger binding; sequences stand for … in GC…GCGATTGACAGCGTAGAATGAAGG
Please provide measured PBM binding z-score for the entries that follow.

What value of measured PBM binding z-score is listed for CCTTTCGGGTCACGAGGTTATAGCACGACGAGCG ?
0.882

Could you share which PBM binding z-score value was measured for GTACCAAGGTGAATAGGTCGTTAATGAGTAGGCG ?
-0.312

# input sequence: TGAATGAGGTTATAAGATCGGGGAACGTTGCAAA ; wanted: its PBM binding z-score
0.228

# input sequence: CCGACTGGGCCAAAAAGGTCATTGATGCCGATAA ; wanted: its PBM binding z-score
-0.421

Any idea what its PBM binding z-score is? The sequence is CAAACTAGTTCAAGGTCAAAGTCGGTTTGTGCCA
1.76

Suppose we examine the sequence AGTCATAGTTCATCTAGGTAACGTAAGATATGCT ; what PBM binding z-score value has been reported?
0.357

Can you share its PBM binding z-score? I mean this sequence: ACTAGTTGGGCAGCTGAGGTCACACACAATTCGG
0.155

Returns the measured PBM binding z-score for the input sequence. Input: ATCTCTACGTAAAAGTTCAGTGAATCCCGAGGAT
1.33

Which PBM binding z-score value is on record for ACAAGCAGGCCAAGGGTCACTCAAGATTAGTCCG ?
-0.322

// PBM binding z-score lookup, key: TCGAGTAGGTTCGGGGCATTCAGAATGGCGTCGA
-1.07

Reported PBM binding z-score for AGAATGAGGTTATACGTATATCAGGGAAGAAAGT : what is it?
0.468

----------
Can you tell me PBM binding z-score for the items I'm about to list?
# System: LXRa homodimer (NR concentration 270 nM)
# experimentalDetails: PBM binding z-score (relative to random genomic background probes); higher = stronger binding; sequences stand for … in GC…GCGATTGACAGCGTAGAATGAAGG
Please state the value as a number alone, without comment.

// map CAAACTAGGTAAAAGGTCAAAGTCGAGCCAACCA to recorded PBM binding z-score (system: LXRa homodimer (NR concentration 270 nM))
4.59

Field: PBM binding z-score (LXRa homodimer (NR concentration 270 nM)). Entry: ATCGAAATGTCGACGAGGTGAGTATACACCGTTT
-0.442

Notebook entry, LXRa homodimer (NR concentration 270 nM) assay: PBM binding z-score of CCTAGTTGGTCAGGGTCACACACGCTATAGGTAC = ?
0.771

Form entry - test system: LXRa homodimer (NR concentration 270 nM); read-out: PBM binding z-score; sequence: TCTTGTAGAGCAATAGAGGTTAAGAAAGTGCGCT
0.104

Form field - read-out: PBM binding z-score; system: LXRa homodimer (NR concentration 270 nM); submitted item: CCTACTGGGCCATTCAGAGGTCATAGATCATATG
5.67

GET /values?readout=PBM binding z-score&system=LXRa homodimer (NR concentration 270 nM)&item= TCTTGGAGATCAACAGGAGGTTAAGAAAGATCGA
-0.0581

Short answer please: PBM binding z-score, LXRa homodimer (NR concentration 270 nM), entry CCAGACAGTTGAGAAGGTAACTCAGCCTCGATTA
0.398

Record CCTACAGGGTCAGCTAGGCCAGAGTAGGGACGGC : what is its PBM binding z-score with LXRa homodimer (NR concentration 270 nM)?
-0.714

Could you share what PBM binding z-score was measured for GCTAGCAGGGCATTTGGGTCACTCAATGACGGGC , tested on LXRa homodimer (NR concentration 270 nM)?
-0.133

Form entry - test system: LXRa homodimer (NR concentration 270 nM); read-out: PBM binding z-score; sequence: TCGAGTAGGTGAGTCGGGGCATTCAGCCAACATA
-0.66

What measured PBM binding z-score is associated with CGAAATAGGTCATTGACAGGACAGTGAATAGTAA on LXRa homodimer (NR concentration 270 nM)?
1.3

State its PBM binding z-score on LXRa homodimer (NR concentration 270 nM): ATATGTAGGTTAGCTGGGGTCAATCAGACTAGGC
1.4

LXRa homodimer (NR concentration 270 nM) / PBM binding z-score / TCATATTGGTAAAGGTGAAAGTCGAACGATATGA : value?
-0.299

Given the entry CAAACTAGGTCATAGAGGTCAAAGTCCGTGCGTA , what PBM binding z-score was observed with LXRa homodimer (NR concentration 270 nM)?
8.36

Please state recorded PBM binding z-score (tested on LXRa homodimer (NR concentration 270 nM)) of CCTATTTGGTCAAGGTCACACACGCTATAGGTAC
2.64

----------
# System: PPARg:RXRa (NR concentration 180 nM, RXRa partner concentration 90 nM)
# experimentalDetails: PBM binding z-score (relative to random genomic background probes); higher = stronger binding; sequences stand for … in GC…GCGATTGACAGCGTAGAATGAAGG
Hi there, I'd appreciate the recorded PBM binding z-score for every entry that follows.
Keep it simple and answer with nothing but the number.

Item ATCTCTAGGTAAGACTCAGCTCAGTGAAGAACGC has what recorded PBM binding z-score?
0.0541

So what does the record say about PBM binding z-score for CGTCAAAGTTCAAAGTAACGTAACAGAAAGCAGC ?
4.43

Quick one: PBM binding z-score for CGAACTAGGGCATCCAGGACAGTGAATACATTGA ?
3.28

What does the record list as PBM binding z-score for AGTCAAAGTTCATCTAGGTAATGTAAGATATGCT ?
6.59

Which PBM binding z-score is reported for this sequence? TCCTGTAGATCAAAGGTTAAGAAAGCCGAAGCCT
7.57

For the sequence ATCTCTAGGTAACAAGCTCAGTGAAAGAGAGGAC , what PBM binding z-score is on record?
0.682

Look up PBM binding z-score: CGTCCAAGGTCAAAGTTCAGTGAAGAGATGACGG
9.06

Name the reported PBM binding z-score value associated with the sequence CCTCGGAGGACAGAAGTTCAGAGCTGTCCGCTTT
-0.643

Bench note: what PBM binding z-score did AGAACGAGGGTAATGAGTTGATAGCACGGGTGGC show?
1.08

Which PBM binding z-score is listed for TCATATAGGCAAAAGGTGAAAGTCGGTGTGGTAA ?
7.39

# query: PBM binding z-score of entry CCTCGGAGGACAACAGGTGGTCAGAGCTGCCAGA
-0.311

# get_value(readout='PBM binding z-score', item= GCATGTAGGTAATACAAGGTGAAAGTCCGATTGT )
1.34

PBM binding z-score for CAAACTACGTCAAAGGTCAAAGTCGAGCCAACCA ?
8.64

Which PBM binding z-score value is on record for CAAACTAGGTCAAGAGGTCAAAGTACGCTTCCCG ?
10

Suppose we examine the sequence CTACTAAGGTGAACAAGGTCGTTGATTACTATTC ; what PBM binding z-score value has been reported?
1.47

Dear colleague, I am looking for the recorded PBM binding z-score of the following sequence: TAGCCTAGGTCATTCAGGGGCCAGGATAGAAAGC
2.2

Can you look up the measured PBM binding z-score of CAAACTAGGTCACGAATGGTCAAAGTCGAATGAC for me?
9.24

Any idea what PBM binding z-score was measured for CAAACTAGGTCAAGAGGCCAAAGTCCGCTTCCCG ?
7.87

Any idea what its PBM binding z-score is? The sequence is CCGACTGGGGCCAAGGTTACCATACTCAGTACGA
3.85

Would you kindly share the measured PBM binding z-score for GCGACTGGGGCAAAGCAGGTTACCATAAGGTTGG ?
1.19

I am curious: what PBM binding z-score value has been reported for CGTCCAAGGTCAGAGAGGTCAGTCAATGCCGAGT ?
3.37

----------
# System: RARb homodimer (NR concentration 270 nM)
# experimentalDetails: PBM binding z-score (relative to random genomic background probes); higher = stronger binding; sequences stand for … in GC…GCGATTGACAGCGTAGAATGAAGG
Category key, based on recorded PBM binding z-score: class 0: < 0.3; class 1: ≥ 0.3 and < 3; class 2: ≥ 3

Input TCTGCTAGGTCAGTTGGTCAGCTAGCGAGCTGCC ; output its category
class 1

Lab log: AATACAGGGTCACTAGGCCAGATTAGGTACGAAT — assign PBM binding z-score category
class 2

Category lookup for the sequence TCGAGTAGGTTACCAATGGTGCATTCAGCTTTCT
class 0

Quick check: band for GCAACGAGGGCAAAGTTGATAGCATCTGTCGACG
class 1

Which class is correct for the following sequence? CCGACTGGGGTAGAAAGGTTACCATACCATCCGG
class 1

Given TCTGCTAGGTCAGTTGGTCACCTAACGAGCTGCC , name the class its PBM binding z-score places it in.
class 1

GET /class?item= TAGCCTAGATCAGATCGGGCCAGTATACGCTATA
class 0

Which bin, given its PBM binding z-score, does CGAACTAGGTCATCAAGGACAGTGAATACATTGA occupy?
class 2

Using the reported PBM binding z-score, which band applies to CCTTACGGGTCACTGACAGGGTATAGCATTTGGA ?
class 1

Which bin, given its PBM binding z-score, does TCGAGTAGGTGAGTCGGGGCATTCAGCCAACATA occupy?
class 1

Kindly identify the class of AGAATGAGATTAAGATCAGGGAAACAGAATACAT .
class 0

Band for CAAACTAGGTGAAGAGGTCAAAGTCCGCTTCCCG ?
class 2

For the record CTACCAAGGTGAACAAGGTCCTTGATTACTATTC , report the class its PBM binding z-score corresponds to.
class 1

Which bin should I file ATATGTAGGTTACGGGTCATTCAGGTTGGTTCGC under?
class 2

For CCTAGCAGACCAGGGTCACTCAAGCATTTCGCTT , which PBM binding z-score bin applies?
class 1

For TCTAGCAGGCCAGAGAGTCACTCAAGAGGTACGG , which PBM binding z-score bin applies?
class 0

Note: place this sequence into its band. Item: GCTAGCATGCCATTTGGGTCACTCAATGACGGGC
class 1

Bin this entry: TCTTGTAGATCAAAGGGTAAGAAAGCCGAAGCCT
class 0
